System: HEL cells
Assay: Cytotoxicity in uninfected cell cultures
Format: cell-based
Conditions: microscopically detectable alteration of cell morphology
testReadout: Minimum cytotoxic concentration

The examples below pair each entry with its known result.
compound	Minimum cytotoxic concentration
Cc1ccc(C(=O)n2c(-c3ccc(S(=O)(=O)O)cc3)nc3ccccc32)cc1 [Compound 11]	>100 µg/mL
O=C(c1ccccc1Cl)n1c(-c2ccc(S(=O)(=O)O)cc2)nc2ccccc21 [Compound 4]	>100 µg/mL
O=C(c1ccc(O)cc1O)n1c(-c2ccc(S(=O)(=O)O)cc2)nc2ccccc21 [Compound 7]	100 µg/mL

Notebook: O=C(c1cccc(O)c1)n1c(-c2ccc(S(=O)(=O)O)cc2)nc2ccccc21 [Compound 6] , Minimum cytotoxic concentration read as >100 µg/mL

====

System: Staphylococcus aureus
Assay: MIC by tube dilution method
Type: cell-based
Settings: observed, S. aureus, 37 °C 24 h
testReadout: pMICsa
Please give only the number in your answer, with no unit.

smilesString	dataValue
O=C(c1ccccc1)n1c(-c2ccc(S(=O)(=O)O)cc2)nc2ccccc21	2.08
O=C(c1ccc(O)cc1O)n1c(-c2ccc(S(=O)(=O)O)cc2)nc2ccccc21	2.12
C=CC(=O)n1c(-c2ccc(S(=O)(=O)O)cc2)nc2ccccc21	1.72

--- query ---
Notebook: `O=C(c1ccc([N+](=O)[O-])cc1)n1c(-c2ccc(S(=O)(=O)O)cc2)nc2ccccc21` , pMICsa read as 2.43

====

Test system: Staphylococcus aureus
Experiment: MIC by tube dilution method
Assay type: cell-based
Conditions: observed, S. aureus, 37 °C 24 h
Respond with T for pMICsa values of 2 and above, F for values below.

Worked examples, 5 compounds total:
compound	assignedCategory
O=C(c1ccccc1Cl)n1c(-c2ccc(S(=O)(=O)O)cc2)nc2ccccc21 [Compound 4]	T
Cc1ccccc1C(=O)n1c(-c2ccc(S(=O)(=O)O)cc2)nc2ccccc21 [Compound 10]	T
Nc1ccc(C(=O)n2c(-c3ccc(S(=O)(=O)O)cc3)nc3ccccc32)cc1 [Compound 3]	T
C=C(C)C(=O)n1c(-c2ccc(S(=O)(=O)O)cc2)nc2ccccc21 [Compound 14]	F
Cc1ccc(S(=O)(=O)n2c(-c3ccc(S(=O)(=O)O)cc3)nc3ccccc32)cc1 [Compound 20]	F

Q: Reported pMICsa at or above 2? O=C(c1ccccc1O)n1c(-c2ccc(S(=O)(=O)O)cc2)nc2ccccc21 [Compound 16]
Result: T

Q: Reported pMICsa at or above 2? Cc1ccc(C(=O)n2c(-c3ccc(S(=O)(=O)O)cc3)nc3ccccc32)cc1 [Compound 11]
Result: T

Q: Reported pMICsa at or above 2? CCCCCCCC/C=C/CCCCCCCC(=O)n1c(-c2ccc(S(=O)(=O)O)cc2)nc2ccccc21 [Compound 18]
Result: T

Q: Reported pMICsa at or above 2? O=C(c1cccnc1)n1c(-c2ccc(S(=O)(=O)O)cc2)nc2ccccc21 [Compound 15]
Result: T

Q: Reported pMICsa at or above 2? CCCCCCCCCCCCCCCC(=O)n1c(-c2ccc(S(=O)(=O)O)cc2)nc2ccccc21 [Compound 19]
Result: T

Q: Reported pMICsa at or above 2? COc1ccc(C(=O)n2c(-c3ccc(S(=O)(=O)O)cc3)nc3ccccc32)cc1 [Compound 8]
Result: T

Q: Reported pMICsa at or above 2? Nc1ccccc1C(=O)n1c(-c2ccc(S(=O)(=O)O)cc2)nc2ccccc21 [Compound 1]
Result: F

Q: Reported pMICsa at or above 2? C/C=C/C(=O)n1c(-c2ccc(S(=O)(=O)O)cc2)nc2ccccc21 [Compound 12]
Result: F

Q: Reported pMICsa at or above 2? O=C(c1ccc(Cl)cc1)n1c(-c2ccc(S(=O)(=O)O)cc2)nc2ccccc21 [Compound 5]
Result: T

Q: Reported pMICsa at or above 2? O=C(c1cccc(O)c1)n1c(-c2ccc(S(=O)(=O)O)cc2)nc2ccccc21 [Compound 6]
Result: T

Q: Reported pMICsa at or above 2? CCCCC(=O)n1c(-c2ccc(S(=O)(=O)O)cc2)nc2ccccc21 [Compound 17]
Result: F

====

Test system: Aspergillus niger
Assay: MIC by tube dilution method
Type: cell-based
Settings: observed, A. niger, 25 °C 7 d
Reported values of pMICan for individual entries
Please give only the number in your answer, with no unit.

The examples below pair each entry with its known result.
smilesString	testReadout	dataValue
C=C(C)C(=O)n1c(-c2ccc(S(=O)(=O)O)cc2)nc2ccccc21	pMICan	1.14
C/C=C/C(=O)n1c(-c2ccc(S(=O)(=O)O)cc2)nc2ccccc21	pMICan	0.84
Cc1ccc(S(=O)(=O)n2c(-c3ccc(S(=O)(=O)O)cc3)nc3ccccc32)cc1	pMICan	1.23

--- query ---
Per the reported Aspergillus niger data, `C=CC(=O)n1c(-c2ccc(S(=O)(=O)O)cc2)nc2ccccc21` has pMICan of 1.12

====

Reported values of pEC50 for individual entries
System: Herpes simplex virus-2 (G)
Assay: microbe, parasite or virus in culture
Assay type: cell-based
Details: Human alphaherpesvirus 2, HEL, read-out: EC50 Herpes simplex virus-2 (G)
pEC50 is a log-scale quantity: -log10 of the concentration expressed in molar.

Notebook: Nc1ccn(C[C@@H](CO)OCP(=O)(O)O)c(=O)n1 [Cidofovir] , pEC50 read as 6.70

Notebook: Nc1nc(O)c2ncn(COC(CO)CO)c2n1 [Ganciclovir] , pEC50 read as 7.52

Notebook: NC(=O)c1ncn([C@@H]2O[C@H](CO)[C@@H](O)[C@H]2O)n1 [Ribavirin] , pEC50 read as 5.70

====

Reported values of Cytotoxicity Minimum cytotoxic concentration for individual entries
Tested on: HeLa cells
Experiment: Cytotoxicity in uninfected cell cultures
Type: cell-based
Details: cell morphology

Notebook: `C=C(C)C(=O)n1c(-c2ccc(S(=O)(=O)O)cc2)nc2ccccc21` , Cytotoxicity Minimum cytotoxic concentration read as >100 µg/mL

Notebook: `CCCCCCCCCCCCCCCC(=O)n1c(-c2ccc(S(=O)(=O)O)cc2)nc2ccccc21` , Cytotoxicity Minimum cytotoxic concentration read as >100 µg/mL

Notebook: `NC(=O)c1ncn([C@@H]2O[C@H](CO)[C@@H](O)[C@H]2O)n1` , Cytotoxicity Minimum cytotoxic concentration read as >250 µM

Notebook: `COc1ccc(C(=O)n2c(-c3ccc(S(=O)(=O)O)cc3)nc3ccccc32)cc1` , Cytotoxicity Minimum cytotoxic concentration read as >100 µg/mL

====

Test system: Aspergillus niger
Experiment: MIC by tube dilution method
Assay type: cell-based
Conditions: observed, A. niger, 25 °C 7 d
testReadout: pMICan
Please give only the number in your answer, with no unit.

The examples below pair each entry with its known result.
molecule	experimentalSystem	pMICan
O=C(c1ccc([N+](=O)[O-])cc1)n1c(-c2ccc(S(=O)(=O)O)cc2)nc2ccccc21 [Compound 9]	Aspergillus niger	1.53
CCCCC(=O)n1c(-c2ccc(S(=O)(=O)O)cc2)nc2ccccc21 [Compound 17]	Aspergillus niger	1.16

--- query ---
Notebook: O=C(c1ccccc1Cl)n1c(-c2ccc(S(=O)(=O)O)cc2)nc2ccccc21 [Compound 4] , pMICan read as 1.22

====

Reported values of EC50 for individual entries
Tested on: Feline Herpes virus
Assay: organism not typed
Format: cell-based
Details: CRFK, read-out: EC50 Feline Corona Virus

The examples below pair each entry with its known result.
smilesString	experimentalSystem	EC50
O=C(c1cccc(O)c1)n1c(-c2ccc(S(=O)(=O)O)cc2)nc2ccccc21	Feline Herpes virus	> 100 µg/mL
O=C(c1ccccc1Cl)n1c(-c2ccc(S(=O)(=O)O)cc2)nc2ccccc21	Feline Herpes virus	> 100 µg/mL
C/C=C/C(=O)n1c(-c2ccc(S(=O)(=O)O)cc2)nc2ccccc21	Feline Herpes virus	> 100 µg/mL
CCCCC(=O)n1c(-c2ccc(S(=O)(=O)O)cc2)nc2ccccc21	Feline Herpes virus	> 100 µg/mL
Cc1ccc(C(=O)n2c(-c3ccc(S(=O)(=O)O)cc3)nc3ccccc32)cc1	Feline Herpes virus	> 100 µg/mL

Per the reported Feline Herpes virus data, `CCCCCCCC/C=C/CCCCCCCC(=O)n1c(-c2ccc(S(=O)(=O)O)cc2)nc2ccccc21` has EC50 of > 100 µg/mL

Per the reported Feline Herpes virus data, `C=CC(=O)n1c(-c2ccc(S(=O)(=O)O)cc2)nc2ccccc21` has EC50 of > 20 µg/mL

Per the reported Feline Herpes virus data, `Nc1ccccc1C(=O)n1c(-c2ccc(S(=O)(=O)O)cc2)nc2ccccc21` has EC50 of > 4 µg/mL

====

Tested on: S. aureus, B. subtilis, E. coli, C. albicans and A. niger
Assay: Average antimicrobial activity
Format: cell-based
Conditions: mean of five pMIC values
Reported values of pMICam for individual entries

The examples below pair each entry with its known result.
smilesString	dataValue
Cc1ccc(C(=O)n2c(-c3ccc(S(=O)(=O)O)cc3)nc3ccccc32)cc1	1.71
CCCCCCCC/C=C/CCCCCCCC(=O)n1c(-c2ccc(S(=O)(=O)O)cc2)nc2ccccc21	1.98
C=C(C)C(=O)n1c(-c2ccc(S(=O)(=O)O)cc2)nc2ccccc21	1.62

--- query ---
Notebook: `C=CC(=O)n1c(-c2ccc(S(=O)(=O)O)cc2)nc2ccccc21` , pMICam read as 1.72
